# System: M14
# test-protocol: NCI 60 cell line panel screen (SRB)
# Assay type: cell-based, human
# assay-conditions: Melanoma, M14
Catalogue of compounds with associated Log10GI50
Would you mind answering with just the numeric figure?

Worked examples, 3 compounds total:
| compound | Log10GI50 |
| --- | --- |
| C[C@@H]1CC[C@H]2[C@@H](C)C(CC(O)(CC3OC4O[C@]5(C)CC[C@H]6[C@H](C)CC[C@@H]([C@H]3C)C46OO5)c3ccc(C(=O)O)cc3)OC3O[C@]4(C)CCC1C32OO4 (some centres unmarked) [Compound 11b] | −7.81 |
| CC1CCC2C(C)C(CC(COCC(=O)O)CC3OC4OC5(C)CCC6C(C)CCC(C3C)C46OO5)OC3OC4(C)CCC1C32OO4 (centres unmarked) [Compound 12b, bis-trioxane O-acetic acid] | −6.68 |
| CC1CCC2C(C)C(CC(COC(=O)CCC(=O)O)CC3OC4OC5(C)CCC6C(C)CCC(C3C)C46OO5)OC3OC4(C)CCC1C32OO4 (centres unmarked) [Compound 8a, bis-trioxane primary succinate monoester] | −6.94 |

Please find the next compound below.
// recorded Log10GI50 for CC(=O)O[C@H]1C(=O)[C@@]2(C)[C@H]([C@H](OC(=O)c3ccccc3)[C@]3(O)C[C@H](OC(=O)[C@H](O)[C@@H](NC(=O)c4ccccc4)c4ccccc4)C(C)=C1C3(C)C)[C@]1(OC(C)=O)CO[C@@H]1C[C@@H]2O [Paclitaxel, paclitaxel, reference compound] : −11.73

====

Catalogue of compounds with associated Log10GI50
# Test system: SNB-19
# test-protocol: NCI 60 cell line panel screen (SRB)
# Type: cell-based, human
# assay-conditions: CNS Cancer, SNB-19
Would you mind answering with just the numeric figure?

Worked examples, 3 compounds total:
| compound | Log10GI50 |
| --- | --- |
| CC(=O)O[C@H]1C(=O)[C@@]2(C)[C@H]([C@H](OC(=O)c3ccccc3)[C@]3(O)C[C@H](OC(=O)[C@H](O)[C@@H](NC(=O)c4ccccc4)c4ccccc4)C(C)=C1C3(C)C)[C@]1(OC(C)=O)CO[C@@H]1C[C@@H]2O [Paclitaxel, paclitaxel, reference compound] | −8.98 |
| CC1CCC2C(C)C(CC(COC(=O)CCC(=O)O)CC3OC4OC5(C)CCC6C(C)CCC(C3C)C46OO5)OC3OC4(C)CCC1C32OO4 (centres unmarked) [Compound 8a, bis-trioxane primary succinate monoester] | −5.62 |
| CC1CCC2C(C)C(CC(CO)CC3OC4OC5(C)CCC6C(C)CCC(C3C)C46OO5)OC3OC4(C)CCC1C32OO4 (centres unmarked) | −4.88 |

For the compound CC1CCC2C(C)C(CC(O)(CO)CC3OC4OC5(C)CCC6C(C)CCC(C3C)C46OO5)OC3OC4(C)CCC1C32OO4 (centres unmarked) , the measured Log10GI50 on SNB-19 was −4.82

====

# System: COLO 205
# test-protocol: NCI 60 cell line panel screen (SRB)
# Type: cell-based, human
# assay-conditions: Colon Cancer, COLO 205
property-name: Log10GI50

| compound | result |
| --- | --- |
| CC(=O)O[C@H]1C(=O)[C@@]2(C)[C@H]([C@H](OC(=O)c3ccccc3)[C@]3(O)C[C@H](OC(=O)[C@H](O)[C@@H](NC(=O)c4ccccc4)c4ccccc4)C(C)=C1C3(C)C)[C@]1(OC(C)=O)CO[C@@H]1C[C@@H]2O [Paclitaxel, paclitaxel, reference compound] | −11.07 |
| CC1CCC2C(C)C(CC(COC(=O)CCC(=O)O)CC3OC4OC5(C)CCC6C(C)CCC(C3C)C46OO5)OC3OC4(C)CCC1C32OO4 (centres unmarked) [Compound 8a, bis-trioxane primary succinate monoester] | <−8.30 |
| CC1CCC2C(C)C(CC(O)(CC3OC4OC5(C)CCC6C(C)CCC(C3C)C46OO5)CS(=O)(=O)c3ccc(C(=O)O)cc3)OC3OC4(C)CCC1C32OO4 (centres unmarked) [Compound 10c] | <−8.30 |
| C[C@@H]1CC[C@H]2[C@@H](C)C(CC(O)(CC3OC4O[C@]5(C)CC[C@H]6[C@H](C)CC[C@@H]([C@H]3C)C46OO5)c3ccc(C(=O)O)cc3)OC3O[C@]4(C)CCC1C32OO4 (some centres unmarked) [Compound 11b] | <−8.30 |
| CC1CCC2C(C)C(CC(COC(=O)c3cc[n+]([O-])cc3)CC3OC4OC5(C)CCC6C(C)CCC(C3C)C46OO5)OC3OC4(C)CCC1C32OO4 (centres unmarked) [Compound 13] | <−8.30 |

// recorded Log10GI50 for C[C@@H]1CC[C@H]2[C@@H](C)C(=O)O[C@@H]3O[C@]4(C)CC[C@@H]1[C@]32OO4 [Artemisinin] : >−4.00

// recorded Log10GI50 for CC1CCC2C(C)C(CC(O)(CO)CC3OC4OC5(C)CCC6C(C)CCC(C3C)C46OO5)OC3OC4(C)CCC1C32OO4 (centres unmarked) [Compound 5, bis-trioxane vicinal diol] : <−8.00

// recorded Log10GI50 for CC1CCC2C(C)C(CC(CO)CC3OC4OC5(C)CCC6C(C)CCC(C3C)C46OO5)OC3OC4(C)CCC1C32OO4 (centres unmarked) [Compound 4, bis-trioxane primary alcohol] : <−8.00
